Data origin: PubChem BioAssay AID1963849

System: 299254-011-R-J1-PDC complex spheroid viability;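 further: spheroids exposed to drugs for one week before measurement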
Test: Anticancer human tumor 299254-011-R-J1-PDC patient-derived melanoma cell line growth inhibition [POLQ]
Details: second compound 0.1 µM; first compound 10 µM; hits give low values
Param label: returns yes when viability, T/C < 80%, returns no otherwise, including exact equality.

compound	subject.of.test	label.value
CCc1cc2c(N3CCc4c(cc(Cn5ccnc5)cc4-c4cn(C)nc4C(F)(F)F)C3=O)cc(C)nc2c(OC)n1 + COC1C(OC(N)=O)C(O)C(Oc2ccc3c(O)c(NC(=O)c4ccc(O)c(CC=C(C)C)c4)c(=O)oc3c2C)OC1(C)C	299254-011-R-J1-PDC complex spheroid viability	yes

Challenge: Lab note: viability, T/C threshold 80%. Does this compound come in strictly under it? C#Cc1c(F)ccc2cc(O)cc(-c3ncc4c(N5CC6CCC(C5)N6)nc(OCC56CCCN5CC(F)C6)nc4c3F)c12 (stereo not given) + Cc1cccc(N(C)C(=O)C2C(O)CCN2c2nc(C)cc(C(F)(F)F)c2C#N)c1
Response given: no

Challenge: Now the compound C=CC(=O)N1CCN(c2nc(=O)n(-c3c(C)ccnc3C(C)C)c3nc(-c4c(O)cccc4F)c(F)cc23)C(C)C1 (stereo not given) + Nc1ccc(C#CCN(C(=O)Cc2ncc(C(F)(F)F)cc2C(F)(F)F)c2ccc(F)cc2)nn1
Response given: yes

Challenge: Now the compound CCc1cc2c(N3CCc4c(cc(Cn5ccnc5)cc4-c4cn(C)nc4C(F)(F)F)C3=O)ccnc2c(OC)n1 + Nc1ccc(C#CCN(C(=O)Cc2ncc(C(F)(F)F)cc2C(F)(F)F)c2ccc(F)cc2)nn1
Response given: yes

Challenge: Now the compound COc1cccc2c1C(=O)c1c(O)c3c(c(O)c1C2=O)CC(O)(C(=O)CO)CC3OC1CC(N)C(O)C(C)O1 (stereo not given) + Nc1ccc(C#CCN(C(=O)Cc2ncc(C(F)(F)F)cc2C(F)(F)F)c2ccc(F)cc2)nn1
Response given: yes

Challenge: Now the compound COc1cccc2c1C(=O)c1c(O)c3c(c(O)c1C2=O)CC(O)(C(=O)CO)CC3OC1CC(N)C(O)C(C)O1 (stereo not given) + Cc1cccc(N(C)C(=O)C2C(O)CCN2c2nc(C)cc(C(F)(F)F)c2C#N)c1
Response given: yes

Challenge: Now the compound O=c1[nH]cc(F)c(=O)[nH]1 + Nc1ccc(C#CCN(C(=O)Cc2ncc(C(F)(F)F)cc2C(F)(F)F)c2ccc(F)cc2)nn1
Response given: no

Challenge: Now the compound O=c1[nH]cc(F)c(=O)[nH]1 + COC1C(OC(N)=O)C(O)C(Oc2ccc3c(O)c(NC(=O)c4ccc(O)c(CC=C(C)C)c4)c(=O)oc3c2C)OC1(C)C
Response given: yes

Challenge: Now the compound CC1COCCN1c1cc(C2(O)CC3CCC(C2)O3)c2cnn(-c3ccn[nH]3)c2n1 (stereo not given) + Nc1ccc(C#CCN(C(=O)Cc2ncc(C(F)(F)F)cc2C(F)(F)F)c2ccc(F)cc2)nn1
Response given: yes
